Test: Inhibition of Staphylococcus aureus MraY by fluorescence assay
Overview of reported IC50 across a group of compounds:
Give the value in nM but do not write nM after it.

Reference set (3 entries):
{"compound smiles": "CCCCCCCCCCCCCCCCNC(=O)[C@@H](NCCCNC(=O)[C@@H](N)CCCNC(=N)N)[C@H](O[C@@H]1O[C@H](CN)[C@@H](O)[C@H]1O)[C@H]1O[C@@H](n2ccc(=O)[nH]c2=O)[C@H](O)[C@@H]1O", "endpoint label": "IC50", "numeric readout": 12.2}
{"compound smiles": "CCCCCCCCCCCCCCC[C@H](NC(=O)c1ccncc1)C(=O)NCCCN[C@H](C(=O)O)[C@H](O[C@@H]1O[C@H](CN)[C@@H](O)[C@H]1O)[C@H]1O[C@@H](n2ccc(=O)[nH]c2=O)[C@H](O)[C@@H]1O", "endpoint label": "IC50", "numeric readout": 8.1}
{"compound smiles": "CCCCCCCCCCCCCCC[C@H](NC(=O)[C@@H](N)[C@@H]1CCNC(=N)N1)C(=O)NCCCN[C@H](C(=O)O)[C@H](O[C@@H]1O[C@H](CN)[C@@H](O)[C@H]1O)[C@H]1O[C@@H](n2ccc(=O)[nH]c2=O)[C@H](O)[C@@H]1O", "endpoint label": "IC50", "numeric readout": 2.4}

Now consider the entry below.
Task: Suppose we examine the compound `CCCCCCCCCCCCCCC[C@H](NC(=O)c1cccnc1)C(=O)NCCCN[C@H](C(=O)O)[C@H](O[C@@H]1O[C@H](CN)[C@@H](O)[C@H]1O)[C@H]1O[C@@H](n2ccc(=O)[nH]c2=O)[C@H](O)[C@@H]1O` ; what IC50 value has been reported?
Output: 9.6

====

Overview of reported log10 of IC50 across a group of compounds:
Assay: Inhibition of Staphylococcus aureus MraY by fluorescence assay
Lab note - IC50 converted to log10 from values in nM.

Reference set (3 entries):
{"compound": "CC(C)C[C@H](NC(=O)[C@@H](NC(=O)N[C@H](C(=O)O)C(C)C)[C@@H]1CCNC(=N)N1)C(=O)NCCCN[C@H](C(=O)O)[C@H](O[C@@H]1O[C@H](CN)[C@@H](O)[C@H]1O)[C@H]1O[C@@H](n2ccc(=O)[nH]c2=O)[C@H](O)[C@@H]1O [MURAMYCIN D2]", "log10 of IC50": 0.45}
{"compound": "CCCCCCCCCCC(=O)N[C@@H](CCCNC(=N)N)C(=O)NCCCN[C@H](C(=O)O)[C@H](O[C@@H]1O[C@H](CN)[C@@H](O)[C@H]1O)[C@H]1O[C@@H](n2ccc(=O)[nH]c2=O)[C@H](O)[C@@H]1O", "log10 of IC50": 0.99}
{"compound": "CCCCCCCCCCCCCCC[C@H](NC(=O)[C@H](CCCN)NC(=O)N[C@H](C(=O)O)C(C)C)C(=O)NCCCN[C@H](C(=O)O)[C@H](O[C@@H]1O[C@H](CN)[C@@H](O)[C@H]1O)[C@H]1O[C@@H](n2ccc(=O)[nH]c2=O)[C@H](O)[C@@H]1O", "log10 of IC50": -0.10}

Task: Suppose we examine the compound `CCCCCCCCCCCCCCC[C@H](NC(=O)[C@@H](NC(=O)OCc1ccccc1)[C@@H]1CCNC(=N)N1)C(=O)NCCCN[C@H](C(=O)O)[C@H](O[C@@H]1O[C@H](CN)[C@@H](O)[C@H]1O)[C@H]1O[C@@H](n2ccc(=O)[nH]c2=O)[C@H](O)[C@@H]1O` ; what log10 of IC50 value has been reported?
Output: 0.62

Task: Would you mind doing `CCCCCCCCCCCCCCC[C@H](NC(C)=O)C(=O)NCCCN[C@H](C(=O)O)[C@H](O[C@@H]1O[C@H](CN)[C@@H](O)[C@H]1O)[C@H]1O[C@@H](n2ccc(=O)[nH]c2=O)[C@H](O)[C@@H]1O` as well?
Output: 0.43

Task: Would you mind doing `CCCCCCCCCCCCCCC[C@H](NC(=O)[C@H](CCCNC(=N)N)NC(=O)N[C@H](C(=O)O)C(C)C)C(=O)NCCCN[C@H](C(=O)O)[C@H](O[C@@H]1O[C@H](CN)[C@@H](O)[C@H]1O)[C@H]1O[C@@H](n2ccc(=O)[nH]c2=O)[C@H](O)[C@@H]1O` as well?
Output: -0.15

Task: Would you mind doing `CCCCCCCCCCCCCCC[C@H](N)C(=O)NCCCN[C@H](C(=O)O)[C@H](O[C@@H]1O[C@H](CN)[C@@H](O)[C@H]1O)[C@H]1O[C@@H](n2ccc(=O)[nH]c2=O)[C@H](O)[C@@H]1O` as well?
Output: 0.41

Task: Would you mind doing `CCCCCCCCCCCCCCC[C@H](NC(=O)c1ccccn1)C(=O)NCCCN[C@H](C(=O)O)[C@H](O[C@@H]1O[C@H](CN)[C@@H](O)[C@H]1O)[C@H]1O[C@@H](n2ccc(=O)[nH]c2=O)[C@H](O)[C@@H]1O` as well?
Output: 0.81

Task: Would you mind doing `CCCCCCCCCCCCCCC[C@H](NC(=O)[C@@H](N)CCCN)C(=O)NCCCN[C@H](C(=O)O)[C@H](O[C@@H]1O[C@H](CN)[C@@H](O)[C@H]1O)[C@H]1O[C@@H](n2ccc(=O)[nH]c2=O)[C@H](O)[C@@H]1O` as well?
Output: 0.58
